Attribution: patent US20250027068

Listing: Enzyme Activity Endpoint Assay (purified): Fab'2 of selected proteins
Target: pooled human IgG
Property Label: Enzyme Activity Endpoint Assay (purified): Fab'2 (ng/µL)

• PRT-119 (protein) MRNATEAYAKETPKQITSVWTKGVTPPTPEQFRYNNEDVFHAPYVANQGWYDITKTFDGKDNLLCGAATAGNMLHWWFDQNKTEIEKYLSKHPEKQKIIFNNQELFDLKAAIDTKDSQTNSQLFNYFRDKAFPNLSARQLGVMPDLVLDMFINGYYLNVTKTQSTDVNRPYQDKDKRGGIFDAVFTRGDQTKLLTARHDLGNKSLNEISQLIKQELQEGKALALSHTYANVRISHVINLWGADFDAEGNLEAIYVTDSDSNASIGMKKYYVGVNSAGKVAISAKKIEGENIGAQVLGLFTLSSGKDIWQKLS = 15
• PRT-145 (protein) MANQEIRYSEVTPYHITSVWTKGVTPPANFTQGEDVFHAPYVANQGWYDITKTFNGKDDLLCGAATAGNMLHWWFDQNKDQIKRYLEEHPEKQKINFNGEQMFDVKEAIDTKNHQLDSKLFEYFKEKAFPYLSTKHLGVFPDHVIDMFINGYRLSLTNHGPTPVKEGSKDPRGGIFDAVFTRGDQSKLLTSRHDFKEKTLNTISQLIKQELQSGKALGLSHTYANVRINHVINLWGADFDAEGNLEAIYVTDSDSNASIGMKKYFVGKNSAGKVAISAKEIKEDNIGAQVLGLFTLSTGQDSWNQTN = 735
• PRT-150 (protein) MANQEIRYSEVTPYHVTSVWTKGVTPPANFTQGEDVFHAPYVANQGWYDITKTFNGKDDLLCGAATAGNMLHWWFDQNKDQIKRYLEEHPEKQKINFNGEQMFDVKEAIDTKNHQLDSKLFEYFKEKAFPYLSTKHLGVFPDHVIDMFINGYRLSLTNHGPTPVKRQEKDPRGGIFDAVFGRGDQTKLLTSRHDFKEKNLKEISDLIKKELTEGKALGLSHTYANVRINHVINLWGADFDSNGNLKAIYVTDSDSNASIGMKKYFVGVNSAGKVAISAKEIKEDNIGAQVLGLFTLSTGQKSWNKTN = 612
• PRT-113 (protein) MRNATEAYAKEVPHTITSVWTKGVTPPTPEQFTYYNEDVFHAPYLAHQGWYDITKTFNGKDNLLCGAATAGNMLHWWFDQNKTEIEAYLSKHPEKQKIIFNNQELFDLKAAIDTKDSQTNSQLFNYFKDKAFPNLSARQLGVMPDLVLDMFINGYYLNVFKTQSTDVNRPYQDKDKRGGIFDAVFTRGDQTKLLTARHDLKNKGLNDISDLIKQELTEGKALALSHTYANVSINHVINLWGADFNAEGNLEAIYVTDSDANASIGMKKYFVGINASGKVAISAKKIEGENIGAQVLGLFTLSSGKDIWQKLS = 656
• PRT-273 (protein) MVTSVWTKGVTPPTDFIYGEDVLHAPYKAGQGWYDITKTFNGKDNLLCGAATAGNMLHWWFDQNKEQIENYLKKHPEKQKIIFNNQELFDLKAAIDTKDSQLDSKLFEYFKEKAFPNLSTKHLGVFPDHVIDMFINGYRLSLLNHGPTPVKRGSKDKRGGIFDAVFTRGVQSKLLTNRHDLKNKTLKEISDLIKQELTEGKALGISHTYANVRINHVINLWGADFDAEGNLEAIYVTDSDTNASIGMKKYFVGVNSSGKVAISAKEIEEDNIGAQVLGLFTLSTGQDIWNQTN = 782
• PRT-229 (protein) MEVVEVWPYGQNPNGKTEILSQTEDSESLQRLRDIEDFQAEKKKQNVVYTKWLDGVDVKDHDFRKIVDGNIAYYATPLLNGRGFYDINKDFNRDSDKCAAAVAANMFHYWLDINRDNVDRFLRQNPEKHGIIELPDGQLKLSDFLNTYESDHGYRDKSKLFDFISNNFNGPVWTDKLLDNYINGYAYNYKYGRTIEDPTKNTSKINFFKEVFNEKILTNNHSIRNQNEFSVLLSEALYTGKAIGLSYGPAGLRHSLGHIISVWGADLDADGNVVAIYVTDSDDKKLTIGDERVGLKRYKISTDDENRLRLTAYEETHNTGGQIRGLWTLDTGKYAWADYFDKTEQTGTDQAEQLEHHHHHH = 691
• PRT-137 (protein) MRNATEAYAKEVPHQITSVWTKGVTPLTPEQFRYNNEDVIHAPYLAHQGWYDITKAFDGKDNLLCGAATAGNMLHWWFDQNKTEIEAYLSKHPEKQKIIFNNQELFDLKAAIDTKDSQTNSQLFNYFRDKAFPNLSARQLGVMPDLVLDMFINGYYLNVFKTQSTDVNRPYQDKDKRGGIFDAVFTRGDQTTLLTARHDLKNKGLNDISTIIKQELTEGRALALSHTYANVSISHVINLWGADFNAEGNLEAIYVTDSDANASIGMKKYFVGINAHGKVAISAKKIEGENIGAQVLGLFTLSSGKDIWQKLS = 662
• PRT-313 (protein) MQITSVWTKGVTPLTPEQFRENNEDVIHAPYLAHQGWYDITKAFDGKDNLLCGAATAGNMLHWWFDQNKTEIEAYLSKHPEKQKIIFGNQELFDLKAAIDTKDSQTNSQLFDYFRDKAFPNLSARQLGVMPDLVLDMFINGYYLNVGKTQSTDVNRPYQDKDKRGGIFDAVFTRGDQTTLLTARHDLKNKGLNDISTIIKQELTEGRALALSHTYANVSISHVINLWGADFNAEGELEAIYVTDSDANPSIGMKKYFVGRNAHGHVAISAKKIEGENIGAQVLGLFTLSSGKDIWQKLS = 409
